B1: KRT13 (parent)
chain: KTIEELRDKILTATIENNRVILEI

- Variants of: B1
- Experiment description: protein stability index of a GFP-peptide fusion (GPS, HEK-293T) (PSI 1-6); higher = more stable;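 further: lentivirally expressed fusions sorted by FACS into six bins by GFP to DsRed ratio, PSI derived from sequencing read proportions per bin multiplied by bin number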
- Condition set: c terminus: a fixed tail appended
A collection of variants and their measured protein stability index
Assay metric: protein stability index

| Seq string | Reported result |
| --- | --- |
| KTIEELRDKILTATIENNRVIYEI [L22Y] | 2.83 |
| KTIEELRDKILTATIENNRVILMI [E23M] | 3.54 |
| KTIEELRDKILTATIENNRVRLEI [I21R] | 2.49 |
| KTIEELRDKILTATILNNRVILEI [E16L] | 3.35 |
| KTIEEQRDKILTATIENNRVILEI [L6Q] | 1.89 |
| KTIEELRDKLLTATIENNRVILEI [I10L] | 1.47 |
| KTIEELRDKILTALIENNRVILEI [T14L] | 1.71 |
| KTIEELRDKILTATIENDRVILEI [N18D] | 2.18 |
| KTIEELRDKILTATIENNQVILEI [R19Q] | 2.64 |
| KTIEELRDKILTATIGNNRVILEI [E16G] | 2.38 |
| KTIEELRDKILTATIETNRVILEI [N17T] | 3.19 |
| KTIEELRDKILTATIENNRYILEI [V20Y] | 1.78 |
| KTIEELRDKILTATIENNRDILEI [V20D] | 2.35 |
| KTIEELRDKILTATIENNRNILEI [V20N] | 2.57 |
